meta.source: patent US10842151B2

- System under test: PYR1 + HAB1 (Arabidopsis thaliana, UniProt O49686)
- Sequence (O49686 whole entry): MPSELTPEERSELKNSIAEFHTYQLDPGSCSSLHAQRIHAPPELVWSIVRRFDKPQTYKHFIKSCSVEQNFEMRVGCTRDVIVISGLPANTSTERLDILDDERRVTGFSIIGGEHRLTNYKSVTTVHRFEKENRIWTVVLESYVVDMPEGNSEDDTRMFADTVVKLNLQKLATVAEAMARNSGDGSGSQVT
- Sequence (Q9CAJ0 172-511 partner): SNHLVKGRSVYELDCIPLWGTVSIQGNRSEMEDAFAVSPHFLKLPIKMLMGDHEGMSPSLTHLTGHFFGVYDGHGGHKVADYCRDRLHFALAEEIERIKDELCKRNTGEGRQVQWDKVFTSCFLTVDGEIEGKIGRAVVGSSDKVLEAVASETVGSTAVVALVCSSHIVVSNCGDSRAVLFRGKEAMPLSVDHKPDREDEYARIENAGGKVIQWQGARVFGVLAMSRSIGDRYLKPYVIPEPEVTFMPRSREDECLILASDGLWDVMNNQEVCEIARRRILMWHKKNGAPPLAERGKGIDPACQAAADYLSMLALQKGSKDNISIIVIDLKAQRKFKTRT
- Assay details: AlphaScreen experiment, PYR1 + HAB1
- Format: binding
- Condition description: column 2; number in brackets; read-out: Half maximum effect concentration EC50 (PYR1 + HAB1)
Quantity measured: EC50 (nM)

Compound | System under test | EC50 [nM]
CCCN1C(=O)CCc2cc(NS(=O)(=O)Cc3ccc(C(F)(F)F)c(F)c3)ccc21 [Compound 1020A] | PYR1 + HAB1 (Arabidopsis thaliana, UniProt O49686) | 140
CCCN1C(=O)CCc2cc(NS(=O)(=O)Cc3ccc(Cl)cc3F)ccc21 | PYR1 + HAB1 (Arabidopsis thaliana, UniProt O49686) | 40
CCCN1C(=O)CCc2cc(NS(=O)(=O)Cc3c(F)c(F)c(C(F)(F)F)c(F)c3F)ccc21 [Compound 1020B] | PYR1 + HAB1 (Arabidopsis thaliana, UniProt O49686) | 50
CCCN1C(=O)CCc2cc(NS(=O)(=O)Cc3ccc(C)c(F)c3)ccc21 [Compound 0604c] | PYR1 + HAB1 (Arabidopsis thaliana, UniProt O49686) | 40
CCCN1C(=O)CCc2cc(NS(=O)(=O)Cc3ccc(C)c(F)c3F)ccc21 | PYR1 + HAB1 (Arabidopsis thaliana, UniProt O49686) | 20
CCCN1C(=O)CCc2cc(NS(=O)(=O)Cc3c(F)c(F)c(C)c(F)c3F)ccc21 | PYR1 + HAB1 (Arabidopsis thaliana, UniProt O49686) | 15

a. CCCN1C(=O)CCc2cc(NS(=O)(=O)Cc3ccc(C)c(Cl)c3)ccc21 [Compound 1103B]
b. CCCN1C(=O)CCc2cc(NS(=O)(=O)Cc3ccc(C)cc3F)ccc21 [Compound 1125A]
c. CCCN1C(=O)CCc2cc(NS(=O)(=O)Cc3cc(F)c(C)c(F)c3)ccc21 [Compound 1125B]
Reorder the items by EC50, least to greatest. Put the labels in the requested order and write them down.
c, b, a
(c: 20 nM, b: 50 nM, a: 120 nM)
